Test system Complement C1s subcomponent (Homo sapiens, UniProt P09871), IC50 listed for each of the molecules.
measuredQuantity: IC50

>>> reported("CC(=O)NCCNC[C@@]12C[C@@H]1N(C(=O)CNC(=O)c1ccc3c(c1)-c1ccccc1C3(F)F)[C@H](C(=O)N[C@H](C)c1cc(C(=N)N)cs1)C2")
"< 100 nM"
>>> reported("N=C(N)c1cc(CNC(=O)[C@@H]2CC3(CN2C(=O)CNC(=O)c2ccc(-c4ccccc4)cn2)OCCO3)cs1")
"< 100 nM"
>>> reported("C[C@@H](NC(=O)[C@H]1C[C@]2(CC(F)(F)F)C[C@@H]2N1C(=O)CNC(=O)c1ccc2c(c1)-c1ccccc1C2(F)F)c1cc(C(=N)N)cs1")
"> 1000 nM"
>>> reported("C[C@@H](NC(=O)[C@@H]1C[C@]2(CC(F)(F)F)C[C@@H]2N1C(=O)CNC(=O)c1ccc2c(c1)-c1ccccc1C2(F)F)c1cc(C(=N)N)cs1")
"> 1000 nM"
